Measured ELISA (Avg), listed per entry.
SYSTEM: T1, SARS-CoV-2 Spike Glycoprotein S1 (subunit 1) (SARS-CoV-2, UniProt P0DTC2 16-685)
T1 construct: also called S1 Monomer; SARS-CoV-2 S1
ASSAY INFO: screening phage ELISA, mean

BINDER	ELISA (Avg)
1-7 (antibody, V domains shown) VH: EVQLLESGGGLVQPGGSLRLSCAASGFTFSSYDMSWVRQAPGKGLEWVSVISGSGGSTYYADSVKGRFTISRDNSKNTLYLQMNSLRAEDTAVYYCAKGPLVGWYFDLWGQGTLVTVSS VL: QSALTQPASVSGSPGQSITISCTGTSSDFGSYNLVSWYQQHPGKAPKLMIYEGNKRPSGVSNRFSGSKSGNTASLTISGLQAEDEADYYCCSYAGSSTFVVFGGGTKLTVL	22.5
1-32 (antibody, V domains shown) VH: EVQLLESGGGLVQPGGSLRLSCAASGFTFSSYAMYWVRQAPGKGLEWVSAISGSGGSTFYADSVKGRFTISRDNSKNTLYLQMNSLRAEDTAVYYCTRPPYGDYGDYWGQGTLVTVSS VL: QSALTQPASVSGSPGQSITISCTGTSSDVGGYNLVSWYQQHPGKAPKLMIYEGNKRPSGVSNRFSGSKSGNTASLTISGLQAEDEADYYCCSYAGSSTFPVVFGGGTKLTVL	17.9
